- test system: SpSla1-D1-D2
- protocol notes: SPOT peptide array binding signal intensity (averaged, normalized) (arbitrary units (background-subtracted, floor 0; scale differs between SH3 domains)); higher = stronger binding of the SH3 domain to the peptide
Reported SPOT peptide array binding signal intensity is given for each of the following binders.
Answer with a bare number; do not write a unit.

binder: ITHRLRISIPGITGR
recorded measurement: 1
--
binder: QRIRKIPGIPLMSVG
recorded measurement: 89.5

# context switch: different binder, same SPOT peptide array binding signal intensity
Exercise: Specify measured SPOT peptide array binding signal intensity for PKMLPIPSKPTLFDL .
Key: 12
